# Test system: Jun.EpoR (ZipEpoR: cJunzip.hEpoRmut, cJun SEQ ID NO: 9, hEpoRmut SEQ ID NO: 10)
# assay_info: Frequency of pSTAT5+ cells after ruxolitinib treatment, T cells expressing Jun.EpoR ZipR
# Format: cell-based
# details: role: inhibitor; STAT5 phosphorylation (pSTAT5+ cells), human T cells, 48-hour treatment
pEC50: −log10 of the molar value.
property_label: pEC50

structure_smiles_string=N#CC[C@H](C1CCCC1)n1cc(-c2ncnc3[nH]ccc23)cn1 property_label=pEC50 obs_value=6.18
